pIC50: −log10 of the molar value.
Observed pIC50 for protein phosphatase 2A specific methyltransferase (MTase) (Homo sapiens, UniProt Q9UIC8), reported per entry below.
OUTCOME_MEASURE: pIC50

INSERT INTO results (molecule, result) VALUES
  ('CCCCCCCCCCCCCCCCCCCC(=O)NCCc1c[nH]c2ccc(F)cc12', '> 5.00'),
  ('CCCCCCCCCCCCCCCCCCCC(=O)NCCc1c[nH]c2ccc(C)cc12', '> 5.00'),
  ('CCCCCCCCCCCCCCCCCCCC(=O)N(C)CCc1c[nH]c2ccccc12', '< 4.00'),
  ('CCCCCCCCCCCCCCCCCC(=O)NCCc1c[nH]c2ccccc12 [Compound I-65, N-(2-(1H-indol-3-yl)ethyl)stearamide]', '> 5.00'),
  ('CCCCCCCCCCCCCCCCCCNC(=O)Cc1c[nH]c2ccc(O)cc12', '4.00 to 5.00'),
  ('CCCCCCCCCCCCCCCCCCCC(=O)NCCc1c[nH]c2ccccc12 [Compound I-64, N-(2-(1H-indol-3-yl)ethyl) icosanamide]', '> 5.00'),
  ('CCCCCCCCCCCCCCCC(=O)NCCc1c[nH]c2ccc(O)cc12', '< 4.00'),
  ('CCCCCCCCCCCCCCCCNC(=O)C(Cc1c[nH]c2ccccc12)NC(=O)OC(C)(C)C (stereo not shown)', '> 5.00'),
  ('CCCCCCCCCCCCCCCCCCCCCC(=O)NCCc1c[nH]c2ccc(O)cc12', '4.00 to 5.00'),
  ('CCCCCCCCCCCCCCCCCCCC(=O)NCCc1c[nH]c2ccc(OC(C)=O)cc12', '> 5.00');
